Test: doxorubicin toxicity protection in MRP-1 cells – H69AR cells, CellTiter-Glo, duplicate, MRP-1 activator project, pilot screen (AID 807);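 also: compound pretreatment 18-22 h then 72 h combined with doxorubicin; 0% = doxorubicin alone and 100% = vehicle without doxorubicin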
Settings: H69AR viability with doxorubicin, CellTiter-Glo luminescence; at 10 µM; active compounds read high
readout-type: viability increase (%)
Lab book: enter the figure in %, no units written.

In: Fill in: viability increase of C=CCn1c(SCC(=O)c2cccs2)nc2sc(CC)cc2c1=O is ___
Out: -1.39

In: Look at this compound and give its reported viability increase. C=CCn1c(=O)c(C(=O)Nc2ccccc2OC)c(O)c2ccccc21
Out: -2.69

In: So what does the record say about viability increase for Cc1ccc(S(=O)(=O)N2CCOCC2)cc1C(=O)Nc1nc(-c2cccnc2)cs1 ?
Out: -1.69

In: # get_value(readout='viability increase', item= O=C1NCC2=C1C(c1ccc(Br)cc1)Nc1ccccc1N2 (stereo not given) )
Out: 0.99

In: Entry CCOC(=O)CN1C(=O)C(=O)c2cccc(C)c21 has what viability increase?
Out: -4.97

In: Record request: viability increase value, item CCOC(=O)c1ccccc1NC(=O)C1COc2ccccc2O1 (stereo not given)
Out: 4.16

In: Which viability increase is reported for this compound? CCOc1ccc(-n2nnc3c(=O)n(CC(=O)N4CCCc5ccccc54)cnc32)cc1
Out: -0.3

In: Would you kindly share the measured viability increase for CCCc1nc(N)c(C#N)c(-c2cccnc2)c1CC ?
Out: -4.91

In: Can you share its viability increase? I mean this compound: Cc1ccc(NC(=O)CSc2nnc(Cn3c(=O)sc4ccccc43)n2C)cc1
Out: -1.58

In: Fill blank: measured viability increase of the compound COc1ccc(-n2c(Cc3cccn3C)nnc2SCC(N)=O)cc1 is ____.
Out: -2.07

In: Any idea what its viability increase is? The compound is CCCc1cc(C(=O)Nc2sc3c(c2C#N)CCC3)no1
Out: -2.05

In: Param item = Nc1nc(SCC(=O)N2CCCc3ccccc32)n(-c2ccccc2)n1 ; retrieve measured viability increase.
Out: -4.68

In: Quick check: viability increase of Cc1noc(C)c1S(=O)(=O)NC1CCN(Cc2ccccc2)CC1 ?
Out: -0.68

In: Endpoint output: viability increase of CCCSc1nnc2nc3c(nn12)c1ccccc1n3C . Value?
Out: -4.48

In: Name the reported viability increase value associated with the compound Cn1cc(C2NC(=O)c3c(sc4c3CCCC4)N2)c2ccccc21 (stereo not given)
Out: -2.92

In: Reported viability increase for CN(CCNS(=O)(=O)c1ccc2c(c1)oc(=O)n2C)Cc1ccccc1 : what is it?
Out: -1.52

In: Entry O=C(CSc1oc(-c2ccco2)nc1S(=O)(=O)c1ccc(F)cc1)NCC1CCCO1 (stereo not given) : reported viability increase = ?
Out: -1.31

In: Give its viability increase value. Item: Cc1cccc(Cn2c(SCC(=O)Nc3ccccc3)nc3c2c(=O)[nH]c(=O)n3C)c1
Out: -1.01

In: // returns reported viability increase for input COc1ccccc1NC(=O)C1=C(C)Nc2nnnn2C1c1cccc(C)c1 (stereo not given)
Out: -5.73

In: Need viability increase, item O=P(c1ccccc1)(c1ccccc1)C1CCCO1 (stereo not given)
Out: 1.36
